Values compiled from patent US6183967.

# target_or_system: Taq DNA polymerase (Thermus aquaticus, UniProt P19821 P19821:1-832)
# Sequence (P19821 whole entry, one chain of several): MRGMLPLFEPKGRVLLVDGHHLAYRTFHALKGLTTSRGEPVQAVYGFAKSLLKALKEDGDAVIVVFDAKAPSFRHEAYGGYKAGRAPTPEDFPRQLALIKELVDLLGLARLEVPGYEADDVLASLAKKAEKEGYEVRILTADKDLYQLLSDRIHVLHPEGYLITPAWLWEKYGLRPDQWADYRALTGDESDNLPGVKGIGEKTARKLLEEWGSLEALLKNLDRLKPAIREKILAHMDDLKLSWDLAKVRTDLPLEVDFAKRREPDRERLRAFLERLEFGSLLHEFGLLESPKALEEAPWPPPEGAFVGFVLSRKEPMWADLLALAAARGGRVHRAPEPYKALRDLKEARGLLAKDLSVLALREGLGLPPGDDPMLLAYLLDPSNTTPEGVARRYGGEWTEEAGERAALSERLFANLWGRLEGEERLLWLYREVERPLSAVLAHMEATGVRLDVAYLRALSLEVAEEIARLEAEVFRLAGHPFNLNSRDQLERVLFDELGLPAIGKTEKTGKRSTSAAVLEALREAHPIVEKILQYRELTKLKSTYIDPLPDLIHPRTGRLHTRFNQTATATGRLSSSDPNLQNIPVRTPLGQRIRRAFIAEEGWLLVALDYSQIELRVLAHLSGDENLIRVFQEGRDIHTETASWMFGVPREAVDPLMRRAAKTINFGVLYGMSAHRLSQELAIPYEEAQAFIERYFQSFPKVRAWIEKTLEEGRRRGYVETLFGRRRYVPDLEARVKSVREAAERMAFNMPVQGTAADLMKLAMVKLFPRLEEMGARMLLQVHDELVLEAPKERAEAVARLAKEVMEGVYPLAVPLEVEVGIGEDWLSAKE
# experiment_notes: FP filter; 55C; IT50 41C
# measurement_context: tags: rTaq, 94 kDa, Roche Molecular Systems; label: end-labeled
endpoint_label: Kd (nM)
Answers are plain numbers, in nM.

Please give the measured Kd for this binder: ligand 20 (ssDNA) DNA: TTCTCGGTTGGTCTCTGGCGGAGCGATCAGACACGAAACATTGCGGACTTTTGTCTTGTGTATGATTCGCTTTTCCC
0.105
